test: Stability test of BTG 1640 salts: evaluation of total impurities; assay type: physicochemical; conditions: T = 30° C., humidity 65% RH; time 9 (months)
Counter-ions that a name gives are not always drawn.

{"COMPOUND": "CN1OC2CCCC(=O)C2C1Cc1ccccc1.O=C(O)/C=C\\C(=O)O (centres unmarked) [BTG 1640 maleate]", "% impurities, %": 4.20}
{"COMPOUND": "CN1OC2CCCC(=O)C2C1Cc1ccccc1.O=C(O)CCC(=O)O (centres unmarked) [BTG 1640 succinate]", "% impurities, %": 33.30}
{"COMPOUND": "CN1OC2CCCC(=O)C2C1Cc1ccccc1.Cl (centres unmarked) [BTG 1640 hydrochloride]", "% impurities, %": 0.12}
{"COMPOUND": "CN1OC2CCCC(=O)C2C1Cc1ccccc1 (centres unmarked) [BTG 1640 fumarate]", "% impurities, %": 0.10}
{"COMPOUND": "CN1OC2CCCC(=O)C2C1Cc1ccccc1.CS(=O)(=O)O (centres unmarked) [BTG 1640 methanesulphonate]", "% impurities, %": 25.80}

----------
// values below are reported Purity %
experiment: Stability test of BTG 1640 salts: purity under preservation conditions; assay type: physicochemical; details: T = 25° C., humidity 60% RH; time 9 (months)
Where a name gives a salt, the structure may show the parent alone.

{"MOLECULE": "CN1OC2CCCC(=O)C2C1Cc1ccccc1.Cl (centres unmarked) [BTG 1640 hydrochloride]", "Purity % (%)": 99.3}
{"MOLECULE": "CN1OC2CCCC(=O)C2C1Cc1ccccc1.O=C(O)/C=C\\C(=O)O (centres unmarked) [BTG 1640 maleate]", "Purity % (%)": 99.7}
{"MOLECULE": "CN1OC2CCCC(=O)C2C1Cc1ccccc1.O=C(O)CCC(=O)O (centres unmarked) [BTG 1640 succinate]", "Purity % (%)": 90.5}
{"MOLECULE": "CN1OC2CCCC(=O)C2C1Cc1ccccc1.CS(=O)(=O)O (centres unmarked) [BTG 1640 methanesulphonate]", "Purity % (%)": 95.0}
{"MOLECULE": "CN1OC2CCCC(=O)C2C1Cc1ccccc1 (centres unmarked) [BTG 1640 fumarate]", "Purity % (%)": 99.9}

----------
assay: Stability test of BTG 1640 salts: purity under preservation conditions; assay type: physicochemical; settings: T = 25° C., humidity 60% RH; time 3 (months)
Where a name gives a salt, the structure may show the parent alone.
# reported Purity %; entries follow

{"COMPOUND": "CN1OC2CCCC(=O)C2C1Cc1ccccc1.CS(=O)(=O)O (centres unmarked) [BTG 1640 methanesulphonate]", "Purity %": "98.2%"}
{"COMPOUND": "CN1OC2CCCC(=O)C2C1Cc1ccccc1.O=C(O)CCC(=O)O (centres unmarked) [BTG 1640 succinate]", "Purity %": "92.7%"}
{"COMPOUND": "CN1OC2CCCC(=O)C2C1Cc1ccccc1.Cl (centres unmarked) [BTG 1640 hydrochloride]", "Purity %": "100.9%"}
{"COMPOUND": "CN1OC2CCCC(=O)C2C1Cc1ccccc1 (centres unmarked) [BTG 1640 fumarate]", "Purity %": "100.0%"}
{"COMPOUND": "CN1OC2CCCC(=O)C2C1Cc1ccccc1.O=C(O)/C=C\\C(=O)O (centres unmarked) [BTG 1640 maleate]", "Purity %": "99.8%"}

----------
The compounds listed here are annotated with their Purity %.
experiment: Stability test of BTG 1640 salts: purity under preservation conditions; assay type: physicochemical; conditions: T = 30° C., humidity 65% RH; time 6 (months)
Counter-ions that a name gives are not always drawn.

{"COMPOUND": "CN1OC2CCCC(=O)C2C1Cc1ccccc1.Cl (centres unmarked) [BTG 1640 hydrochloride]", "Purity %, %": 100.9}
{"COMPOUND": "CN1OC2CCCC(=O)C2C1Cc1ccccc1.O=C(O)CCC(=O)O (centres unmarked) [BTG 1640 succinate]", "Purity %, %": 71.5}
{"COMPOUND": "CN1OC2CCCC(=O)C2C1Cc1ccccc1 (centres unmarked) [BTG 1640 fumarate]", "Purity %, %": 100.0}
{"COMPOUND": "CN1OC2CCCC(=O)C2C1Cc1ccccc1.O=C(O)/C=C\\C(=O)O (centres unmarked) [BTG 1640 maleate]", "Purity %, %": 98.9}
{"COMPOUND": "CN1OC2CCCC(=O)C2C1Cc1ccccc1.CS(=O)(=O)O (centres unmarked) [BTG 1640 methanesulphonate]", "Purity %, %": 86.8}

----------
Each entry below carries its reported Purity %.
Assay: Stability test of BTG 1640 salts: purity under preservation conditions
Format: physicochemical
Conditions: T = 25° C., humidity 60% RH; time 0
Method: Samples of 100 mg each of BTG 1640 hydrochloride were subjected to the following preservation conditions: The purities were then analyzed periodically, initially every three months, in order to underline possible variations. […] Quarterly and in an overall period of nine months its purity was then analyzed in order to underline possible variations. […] The stabilities were then evaluated by subjecting samples of 100 mg of each salt to the following analogous preservation conditions: […]
Counter-ions that a name gives are not always drawn.

{"COMPOUND": "CN1OC2CCCC(=O)C2C1Cc1ccccc1.Cl (centres unmarked) [BTG 1640 hydrochloride]", "UNITS TEXT": "%", "Purity %": 99.7}
{"COMPOUND": "CN1OC2CCCC(=O)C2C1Cc1ccccc1.O=C(O)CCC(=O)O (centres unmarked) [BTG 1640 succinate]", "UNITS TEXT": "%", "Purity %": 99.2}
{"COMPOUND": "CN1OC2CCCC(=O)C2C1Cc1ccccc1.CS(=O)(=O)O (centres unmarked) [BTG 1640 methanesulphonate]", "UNITS TEXT": "%", "Purity %": 99.6}
{"COMPOUND": "CN1OC2CCCC(=O)C2C1Cc1ccccc1.O=C(O)/C=C\\C(=O)O (centres unmarked) [BTG 1640 maleate]", "UNITS TEXT": "%", "Purity %": 99.8}
{"COMPOUND": "CN1OC2CCCC(=O)C2C1Cc1ccccc1 (centres unmarked) [BTG 1640 fumarate]", "UNITS TEXT": "%", "Purity %": 99.5}

----------
test: Stability test of BTG 1640 salts: evaluation of total impurities; type: physicochemical; conditions: T = 40° C., humidity 75% RH; time 3 (months)
Where a name gives a salt, the structure may show the parent alone.
Reported % impurities values are given for each entry in this list.
MEASUREMENT LABEL: % impurities (%)

{"COMPOUND": "CN1OC2CCCC(=O)C2C1Cc1ccccc1.CS(=O)(=O)O (centres unmarked) [BTG 1640 methanesulphonate]", "MEASUREMENT LABEL": "% impurities", "UNITS TEXT": "%", "RECORDED RESULT": 18.50}
{"COMPOUND": "CN1OC2CCCC(=O)C2C1Cc1ccccc1.O=C(O)/C=C\\C(=O)O (centres unmarked) [BTG 1640 maleate]", "MEASUREMENT LABEL": "% impurities", "UNITS TEXT": "%", "RECORDED RESULT": 75.60}
{"COMPOUND": "CN1OC2CCCC(=O)C2C1Cc1ccccc1.O=C(O)CCC(=O)O (centres unmarked) [BTG 1640 succinate]", "MEASUREMENT LABEL": "% impurities", "UNITS TEXT": "%", "RECORDED RESULT": 83.50}
{"COMPOUND": "CN1OC2CCCC(=O)C2C1Cc1ccccc1 (centres unmarked) [BTG 1640 fumarate]", "MEASUREMENT LABEL": "% impurities", "UNITS TEXT": "%", "RECORDED RESULT": 0.10}
{"COMPOUND": "CN1OC2CCCC(=O)C2C1Cc1ccccc1.Cl (centres unmarked) [BTG 1640 hydrochloride]", "MEASUREMENT LABEL": "% impurities", "UNITS TEXT": "%", "RECORDED RESULT": 6.99}

----------
experiment: Stability test of BTG 1640 salts: purity under preservation conditions; type: physicochemical; settings: T = 30° C., humidity 65% RH; time 9 (months)
Structures can show the parent of a compound that is named as a salt.
Known Purity % of a selection of compounds
MEASUREMENT LABEL: Purity %

{"COMPOUND": "CN1OC2CCCC(=O)C2C1Cc1ccccc1.O=C(O)CCC(=O)O (centres unmarked) [BTG 1640 succinate]", "RECORDED RESULT": "66.8%"}
{"COMPOUND": "CN1OC2CCCC(=O)C2C1Cc1ccccc1.O=C(O)/C=C\\C(=O)O (centres unmarked) [BTG 1640 maleate]", "RECORDED RESULT": "95.9%"}
{"COMPOUND": "CN1OC2CCCC(=O)C2C1Cc1ccccc1.Cl (centres unmarked) [BTG 1640 hydrochloride]", "RECORDED RESULT": "100.6%"}
{"COMPOUND": "CN1OC2CCCC(=O)C2C1Cc1ccccc1 (centres unmarked) [BTG 1640 fumarate]", "RECORDED RESULT": "99.9%"}
{"COMPOUND": "CN1OC2CCCC(=O)C2C1Cc1ccccc1.CS(=O)(=O)O (centres unmarked) [BTG 1640 methanesulphonate]", "RECORDED RESULT": "74.2%"}
